test system: 186277-243-T-J2-PDC complex spheroids, viability; assay: Anticancer human tumor 186277-243-T-J2-PDC patient-derived colon adenocarcinoma cell line growth inhibition [RAS]; conditions: second compound 0.000949 µM; first compound 10 µM; active = viability on the fitted dose curve at most 10% of control; inactive = the rest
Classes used: 1 (yes) = active, 0 (no) = inactive

compound	cat
Cc1nc(N2CCC3(CC2)COC(C)C3N)c(CO)nc1Sc1ccnc(N)c1Cl (configuration not stated) + CCn1c(-c2cc(N3CCN(C)CC3)cnc2C(C)OC)c2c3cc(ccc31)-c1csc(n1)CC(NC(=O)C1CC1C)C(=O)N1CCCC(N1)C(=O)OCC(C)(C)C2	1 (yes)
CC1(O)CCCC1n1c(=O)c(C(F)F)cc2cnc(NC3CCN(S(C)(=O)=O)CC3)nc21 (configuration not stated) + CCn1c(-c2cc(N3CCN(C)CC3)cnc2C(C)OC)c2c3cc(ccc31)-c1csc(n1)CC(NC(=O)C1CC1C)C(=O)N1CCCC(N1)C(=O)OCC(C)(C)C2	1 (yes)
CCC(CC)c1cc(NC2CCC(N)C2)n2nccc2n1 (configuration not stated) + CCn1c(-c2cccnc2C(C)OC)c2c3cc(ccc31)N1CCOC(CC(NC(=O)C(C(C)C)N(C)C(=O)C3(F)CCN(C(=O)C#CC(C)(C)N(C)C)CC3)C(=O)N3CCCC(N3)C(=O)OCC(C)(C)C2)C1	1 (yes)
C[C@@H](NC(=O)c1ncnc(N)c1Cl)c1ncc(C(=O)Nc2cc(C(F)(F)F)c(Cl)cn2)s1 + CCn1c(-c2cc(N3CCN(C)CC3)cnc2C(C)OC)c2c3cc(ccc31)-c1csc(n1)CC(NC(=O)C1CC1C)C(=O)N1CCCC(N1)C(=O)OCC(C)(C)C2	0 (no)
CC(C)NCC(C(=O)N1CCN(c2ncnc3c2C(C)CC3O)CC1)c1ccc(Cl)cc1 (configuration not stated) + CCn1c(-c2cc(N3CCN(C)CC3)cnc2C(C)OC)c2c3cc(ccc31)-c1csc(n1)CC(NC(=O)C1CC1C)C(=O)N1CCCC(N1)C(=O)OCC(C)(C)C2	0 (no)
CC(Nc1ccc2c(c1)OCCn1cc(N3C(=O)OCC3C(F)F)nc1-2)C(N)=O (configuration not stated) + CCn1c(-c2cccnc2C(C)OC)c2c3cc(ccc31)N1CCOC(CC(NC(=O)C(C(C)C)N(C)C(=O)C3(F)CCN(C(=O)C#CC(C)(C)N(C)C)CC3)C(=O)N3CCCC(N3)C(=O)OCC(C)(C)C2)C1	0 (no)
CC(Nc1ccc2c(c1)OCCn1cc(N3C(=O)OCC3C(F)F)nc1-2)C(N)=O (configuration not stated) + CCn1c(-c2cc(N3CCN(C)CC3)cnc2C(C)OC)c2c3cc(ccc31)-c1csc(n1)CC(NC(=O)C1CC1C)C(=O)N1CCCC(N1)C(=O)OCC(C)(C)C2	1 (yes)

* * *

test system: 186277-243-T-J2-PDC complex spheroids, viability; experiment: Anticancer human tumor 186277-243-T-J2-PDC cell line growth inhibition [RAS]; settings: second compound 0.00949 µM; first compound 1 µM; active = viability on the fitted dose curve at most 10% of control; inactive = the rest;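 also: spheroids exposed to compounds for 7 days before viability read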
Classes used: Yes = active, No = inactive

molecule	cat
CC(C)NCC(C(=O)N1CCN(c2ncnc3c2C(C)CC3O)CC1)c1ccc(Cl)cc1 (centres undefined) + CCn1c(-c2cc(N3CCN(C)CC3)cnc2C(C)OC)c2c3cc(ccc31)-c1csc(n1)CC(NC(=O)C1CC1C)C(=O)N1CCCC(N1)C(=O)OCC(C)(C)C2	Yes
O=C(c1ccc(F)c(F)c1Nc1ccc(I)cc1F)N1CC(O)([C@@H]2CCCCN2)C1 + CCn1c(-c2cccnc2C(C)OC)c2c3cc(ccc31)N1CCOC(CC(NC(=O)C(C(C)C)N(C)C(=O)C3(F)CCN(C(=O)C#CC(C)(C)N(C)C)CC3)C(=O)N3CCCC(N3)C(=O)OCC(C)(C)C2)C1	Yes
C=CC(=O)N1CCN(c2nc(OCC3CCCN3C)nc3c(F)c(-c4nc(N)cc(C)c4C(F)(F)F)c(Cl)cc23)C(C)C1 (centres undefined) + CCn1c(-c2cccnc2C(C)OC)c2c3cc(ccc31)N1CCOC(CC(NC(=O)C(C(C)C)N(C)C(=O)C3(F)CCN(C(=O)C#CC(C)(C)N(C)C)CC3)C(=O)N3CCCC(N3)C(=O)OCC(C)(C)C2)C1	No
C[C@@H](NC(=O)c1ncnc(N)c1Cl)c1ncc(C(=O)Nc2cc(C(F)(F)F)c(Cl)cn2)s1 + CCn1c(-c2cccnc2C(C)OC)c2c3cc(ccc31)N1CCOC(CC(NC(=O)C(C(C)C)N(C)C(=O)C3(F)CCN(C(=O)C#CC(C)(C)N(C)C)CC3)C(=O)N3CCCC(N3)C(=O)OCC(C)(C)C2)C1	No
